Each recorded value in this set is attributed to paper PMC8716824.

Tested on: cisplatin-resistant A549 (A549/DDP) lung cancer cells
Experiment: MTT antiproliferative assay, A549/DDP
Type: cell-based
outcome.measure: pIC50
Please express pIC50 as -log10 of the molar concentration.

State the recorded pIC50 for this entry: N.N.[Cl][Pt][Cl] [cisplatin, reference compound]
4.17

---

Test system: A549 lung cancer cells
Experiment: MTT antiproliferative assay, A549
Format: cell-based
Conditions: Homo sapiens
// classify(record): look up IC50 in ranges low: < 10 µM; mid: ≥ 10 µM and < 30 µM; high: ≥ 30 µM

Recorded results for 5 compounds are shown here.
Entry C[C@@H]1CC[C@H]2[C@@H](C)C(=O)O[C@@H]3O[C@@]4(C)CC[C@@H]1[C@]32OO4 belongs to which category?
high

Entry CON=C1C(=O)N(CCn2cc(COC3O[C@@H]4O[C@@]5(C)CC[C@H]6[C@H](C)CC[C@@H]([C@H]3C)[C@@]46OO5)nn2)c2ccc(OC)cc21 (stereo partly shown) belongs to which category?
high

Entry C[C@@H]1CC[C@H]2[C@@H](C)C(OCc3cn(CCN4C(=O)C(=O)c5ccccc54)nn3)O[C@@H]3O[C@@]4(C)CC[C@@H]1[C@]32OO4 (stereo partly shown) belongs to which category?
low

Entry CCON=C1C(=O)N(CCn2cc(COC3O[C@@H]4O[C@@]5(C)CC[C@H]6[C@H](C)CC[C@@H]([C@H]3C)[C@@]46OO5)nn2)c2ccc(OC)cc21 (stereo partly shown) belongs to which category?
high

Entry COc1ccc2c(c1)C(=NOCc1ccccc1)C(=O)N2CCn1cc(COC2O[C@@H]3O[C@@]4(C)CC[C@H]5[C@H](C)CC[C@@H]([C@H]2C)[C@@]35OO4)nn1 (stereo partly shown) belongs to which category?
high

---
Entry CCON=C1C(=O)N(CCn2cc(COC3O[C@@H]4O[C@@]5(C)CC[C@H]6[C@H](C)CC[C@@H]([C@H]3C)[C@@]46OO5)nn2)c2ccccc21 (stereo partly shown) belongs to which category?
mid

Entry C[C@@H]1CC[C@H]2[C@@H](C)C(OCc3cn(CCN4C(=O)C(=NNC(N)=S)c5ccccc54)nn3)O[C@@H]3O[C@@]4(C)CC[C@@H]1[C@]32OO4 (stereo partly shown) belongs to which category?
mid

Entry C[C@@H]1CC[C@H]2[C@@H](C)C(OCc3cn(CCN4C(=O)C(=NO)c5cc(F)ccc54)nn3)O[C@@H]3O[C@@]4(C)CC[C@@H]1[C@]32OO4 (stereo partly shown) belongs to which category?
low

Entry CCON=C1C(=O)N(CCn2cc(COC3O[C@@H]4O[C@@]5(C)CC[C@H]6[C@H](C)CC[C@@H]([C@H]3C)[C@@]46OO5)nn2)c2ccc(F)cc21 (stereo partly shown) belongs to which category?
mid

Entry C[C@@H]1CC[C@H]2[C@@H](C)C(OCc3cn(CCN4C(=O)C(=NO)c5ccccc54)nn3)O[C@@H]3O[C@@]4(C)CC[C@@H]1[C@]32OO4 (stereo partly shown) belongs to which category?
mid

Entry C[C@H]1[C@@H](O)O[C@@H]2O[C@@]3(C)CC[C@H]4[C@H](C)CC[C@@H]1[C@@]24OO3 [DHA, Dihydroartemisinin] belongs to which category?
high

Entry COc1ccc2c(c1)C(=O)C(=O)N2CCn1cc(COC2O[C@@H]3O[C@@]4(C)CC[C@H]5[C@H](C)CC[C@@H]([C@H]2C)[C@@]35OO4)nn1 (stereo partly shown) belongs to which category?
mid

Entry C[C@@H]1CC[C@H]2[C@@H](C)C(OCc3cn(CCN4C(=O)C(=NOCc5ccccc5)c5ccccc54)nn3)O[C@@H]3O[C@@]4(C)CC[C@@H]1[C@]32OO4 (stereo partly shown) belongs to which category?
mid

Entry CON=C1C(=O)N(CCn2cc(COC3O[C@@H]4O[C@@]5(C)CC[C@H]6[C@H](C)CC[C@@H]([C@H]3C)[C@@]46OO5)nn2)c2ccccc21 (stereo partly shown) belongs to which category?
mid

Entry CON=C1C(=O)N(CCn2cc(COC3O[C@@H]4O[C@@]5(C)CC[C@H]6[C@H](C)CC[C@@H]([C@H]3C)[C@@]46OO5)nn2)c2ccc(F)cc21 (stereo partly shown) belongs to which category?
low

Entry C[C@@H]1CC[C@H]2[C@@H](C)C(OCc3cn(CCN4C(=O)C(=O)c5cc(F)ccc54)nn3)O[C@@H]3O[C@@]4(C)CC[C@@H]1[C@]32OO4 (stereo partly shown) belongs to which category?
low
